details: male, Sprague-Dawley, rat, plasma, iv, 1 mg/kg, Mean plasma concentration of THC, Intravenous (1 mg/kg), propylene glycol, n = 3, rat, time 5 minutes
measurement_name: concentration at 5 minutes (ng/mL)
Number only, in ng/mL; omit the unit.

query: Give concentration at 5 minutes for the following compound: CCCCCc1cc(O)c2c(c1)OC(C)(C)[C@@H]1CCC(C)=C[C@@H]21 [THC, delta-9-tetrahydrocannabinol]
result: 136

---

details: male, Sprague-Dawley, rat, plasma, inhaled or intranasal, 9.91 mg/kg
measurement_name: AUC
Write down the value, and be sure its unit follows.

query: Give AUC for the following compound: CCCCCc1cc(O)c2c(c1)OC(C)(C)[C@@H]1CCC(C)=C[C@@H]21 [THC, delta-9-tetrahydrocannabinol]
result: 434 ng·h/mL

---

conditions: male, Sprague-Dawley, rat, plasma, iv, 1 mg/kg, Mean plasma concentration of THC, Intravenous (1 mg/kg), propylene glycol, n = 3, rat, time 240 minutes
measurement_name: concentration at 240 minutes

query: Give concentration at 240 minutes for the following compound: CCCCCc1cc(O)c2c(c1)OC(C)(C)[C@@H]1CCC(C)=C[C@@H]21 [THC, delta-9-tetrahydrocannabinol]
result: 21 ng/mL

---

conditions: male, Sprague-Dawley, rat, plasma, other: intranasal, 10 mg/kg, Mean plasma concentration of THC, Intranasal (10 mg/kg), propylene glycol, n = 3, rat, time 0.5 minutes
measurement_name: concentration at 0.5 minutes (ng/mL)
Number only, in ng/mL; omit the unit.

query: Give concentration at 0.5 minutes for the following molecule: CCCCCc1cc(O)c2c(c1)OC(C)(C)[C@@H]1CCC(C)=C[C@@H]21 [THC, delta-9-tetrahydrocannabinol]
result: 0

---

conditions: male, Sprague-Dawley, rat, plasma, other: intranasal, 10 mg/kg
measurement_name: bioavailability

query: Give bioavailability for the following compound: CCCCCc1cc(O)c2c(c1)OC(C)(C)[C@@H]1CCC(C)=C[C@@H]21 [THC, delta-9-tetrahydrocannabinol]
result: ~14%

---

settings: male, Sprague-Dawley, rat, plasma, other: intranasal, 10 mg/kg, Mean plasma concentration of THC, Intranasal (10 mg/kg), propylene glycol, n = 3, rat, time 300 minutes
measurement_name: concentration at 300 minutes
Write down the value, and be sure its unit follows.

query: Give concentration at 300 minutes for the following compound: CCCCCc1cc(O)c2c(c1)OC(C)(C)[C@@H]1CCC(C)=C[C@@H]21 [THC, delta-9-tetrahydrocannabinol]
result: 19 ng/mL

---

settings: male, Sprague-Dawley, rat, plasma, inhaled or intranasal, 9.91 mg/kg
measurement_name: Cmax
Write down the value, and be sure its unit follows.

query: Give Cmax for the following compound: CCCCCc1cc(O)c2c(c1)OC(C)(C)[C@@H]1CCC(C)=C[C@@H]21 [THC, delta-9-tetrahydrocannabinol]
result: 75 ng/mL

---

conditions: male, Sprague-Dawley, rat, plasma, iv, 0.99 mg/kg
measurement_name: Tmax
Write down the value, and be sure its unit follows.

query: Give Tmax for the following compound: CCCCCc1cc(O)c2c(c1)OC(C)(C)[C@@H]1CCC(C)=C[C@@H]21 [THC, delta-9-tetrahydrocannabinol]
result: 29.9 s

---

conditions: male, Sprague-Dawley, rat, plasma, other: intranasal, 10 mg/kg, Mean plasma concentration of THC, Intranasal (10 mg/kg), 90:10 propylene glycol/ethanol, n = 5, rat, time 0.5 minutes
measurement_name: concentration at 0.5 minutes (ng/mL)
Number only, in ng/mL; omit the unit.

query: Give concentration at 0.5 minutes for the following compound: CCCCCc1cc(O)c2c(c1)OC(C)(C)[C@@H]1CCC(C)=C[C@@H]21 [THC, delta-9-tetrahydrocannabinol]
result: 0

---

details: male, Sprague-Dawley, rat, plasma, other: intranasal, 10 mg/kg, Mean plasma concentration of THC, Intranasal (10 mg/kg), 90:10 propylene glycol/ethanol, n = 5, rat, time 300 minutes
measurement_name: concentration at 300 minutes (ng/mL)
Number only, in ng/mL; omit the unit.

query: Give concentration at 300 minutes for the following compound: CCCCCc1cc(O)c2c(c1)OC(C)(C)[C@@H]1CCC(C)=C[C@@H]21 [THC, delta-9-tetrahydrocannabinol]
result: 20

---

details: male, Sprague-Dawley, rat, plasma, iv, 1 mg/kg, Mean plasma concentration of THC, Intravenous (1 mg/kg), propylene glycol, n = 3, rat, time 300 minutes
measurement_name: concentration at 300 minutes
Write down the value, and be sure its unit follows.

query: Give concentration at 300 minutes for the following molecule: CCCCCc1cc(O)c2c(c1)OC(C)(C)[C@@H]1CCC(C)=C[C@@H]21 [THC, delta-9-tetrahydrocannabinol]
result: 18 ng/mL
